// provenance: the Immune Epitope Database (IEDB)

# testedOn: HLA-B*15:01
# procedureText: IEDB peptide-MHC binding, purified MHC/direct/fluorescence; filed as Kd, often an IC50 or EC50 that approximates it; bounds were set here for any values at or beyond the usual limits of such assays
# testContext: source organism: Influenza A virus (A/egret/Hong Kong/757.3/2002(H5N1))
pKd: −log10 of the molar value.
resultType: pKd

q: Which measured pKd value corresponds to `EEFTMVGRR` ?
a: ≤ 4.70

###

# testedOn: HLA-B*27:03
# procedureText: IEDB peptide-MHC binding, purified MHC/competitive/fluorescence; filed as Kd, often an IC50 or EC50 that approximates it; bounds were set here for any values at or beyond the usual limits of such assays
# testContext: source organism: Giardia lamblia ATCC 50803
resultType: Kd

q: Which measured Kd value corresponds to `LLDDGWAGE` ?
a: ≥ 20 µM

###

# testedOn: HLA-A*02:11
# procedureText: IEDB peptide-MHC binding, purified MHC/direct/fluorescence; filed as Kd, often an IC50 or EC50 that approximates it; bounds were set here for any values at or beyond the usual limits of such assays
# testContext: source organism: Toxoplasma gondii
pKd: −log10 of the molar value.
resultType: pKd

q: Which measured pKd value corresponds to `VSSHKGWAK` ?
a: ≤ 4.70

###

# testedOn: HLA-B*44:02
# procedureText: IEDB peptide-MHC binding, purified MHC/direct/fluorescence; filed as Kd, often an IC50 or EC50 that approximates it; bounds were set here for any values at or beyond the usual limits of such assays
# testContext: source organism: Orthohantavirus sinnombreense
pKd: −log10 of the molar value.
resultType: pKd

q: Find the measured pKd: item `FRYKSRCYV` , target or system HLA-B*44:02.
a: ≤ 4.70

###

# testedOn: HLA-B*46:01
# procedureText: IEDB peptide-MHC binding, purified MHC/competitive/fluorescence; filed as Kd, often an IC50 or EC50 that approximates it; bounds were set here for any values at or beyond the usual limits of such assays
# testContext: source organism: Orthohantavirus andesense
resultType: Kd

q: Which measured Kd value corresponds to `QIQAGNFHW` ?
a: ≥ 20 µM

###

# testedOn: HLA-A*02:12
# procedureText: IEDB peptide-MHC binding, purified MHC/competitive/fluorescence; filed as Kd, often an IC50 or EC50 that approximates it; bounds were set here for any values at or beyond the usual limits of such assays
# testContext: source organism: Giardia lamblia ATCC 50803
resultType: Kd (µM)
Give bare numbers, in µM.

q: Which measured Kd value corresponds to `LLDDGWAGE` ?
a: 6

###

Give measured pKd for each item. Keep answers brief.
# testedOn: HLA-A*02:03
# procedureText: IEDB peptide-MHC binding, purified MHC/direct/fluorescence; filed as Kd, often an IC50 or EC50 that approximates it; bounds were set here for any values at or beyond the usual limits of such assays
# testContext: source organism: Zaire ebolavirus
pKd: −log10 of the molar value.

Please review the following examples before continuing.
{"sequenceString": "GLIQYPTAW", "pKd": "≤ 4.70"}
{"sequenceString": "LSDAARLFL", "pKd": "≤ 4.70"}
{"sequenceString": "DEMVCKWLL", "pKd": "≤ 4.70"}

q: Which measured pKd value corresponds to `EWAENCYNL` ?
a: ≤ 4.70

###

# testedOn: HLA-A*31:01
# procedureText: IEDB peptide-MHC binding, purified MHC/direct/fluorescence; filed as Kd, often an IC50 or EC50 that approximates it; bounds were set here for any values at or beyond the usual limits of such assays
# testContext: source organism: Influenza A virus (A/Hong Kong/213/2003(H5N1))
resultType: Kd

q: Which measured Kd value corresponds to `CFMYSDFHF` ?
a: ≥ 20 µM

###

# testedOn: HLA-A*33:01
# procedureText: IEDB peptide-MHC binding, purified MHC/competitive/radioactivity; filed as Kd, often an IC50 or EC50 that approximates it; bounds were set here for any values at or beyond the usual limits of such assays
# testContext: source organism: Vaccinia virus WR
Give measured Kd for each item. Keep answers brief.

Please review the following examples before continuing.
{"sequenceString": "ALEVLMSPCR", "testedOn": "HLA-A*33:01", "resultType": "Kd", "testResult": "0.254 µM"}
{"sequenceString": "ELALTDVEKR", "testedOn": "HLA-A*33:01", "resultType": "Kd", "testResult": "16.8 µM"}
{"sequenceString": "DIVNEHDIKY", "testedOn": "HLA-A*33:01", "resultType": "Kd", "testResult": "≥ 46.1 µM"}
{"sequenceString": "LFDFVNEKY", "testedOn": "HLA-A*33:01", "resultType": "Kd", "testResult": "≥ 77.7 µM"}
{"sequenceString": "EINEWLSSK", "testedOn": "HLA-A*33:01", "resultType": "Kd", "testResult": "0.0186 µM"}

Please supply Kd for each of the following items, keeping them in order.
1. PMPYMISTY
2. NAVYQCRKLR
3. MLPESDLDK
4. ELESLSKRER
5. STVKTNLYMK

a:
1: ≥ 77.7 µM; 2: 6.35 µM; 3: ≥ 73.2 µM; 4: 12.6 µM; 5: ≥ 70 µM

###

# testedOn: HLA-A*02:06
# procedureText: IEDB peptide-MHC binding, purified MHC/competitive/radioactivity; filed as Kd, often an IC50 or EC50 that approximates it; bounds were set here for any values at or beyond the usual limits of such assays
# testContext: source organism: SARS coronavirus Tor2
Each record is given True if its reported Kd is strictly below 1000 pM. Records at or above 1000 pM are given False.

{"sequenceString": "LMSFTILCL", "cat": "False"}
{"sequenceString": "AQFLYLYAL", "cat": "True"}
{"sequenceString": "TQWSLFFFV", "cat": "True"}
{"sequenceString": "MLFTKFFYL", "cat": "False"}
{"sequenceString": "LLLEWLAEV", "cat": "True"}
{"sequenceString": "NLAPHLLLIV", "cat": "False"}

q: Strictly below 1000 pM in Kd? `FLAHLQWFA`
a: True

q: Thanks! And `FVVFLLVTL` ?
a: False

###

# testedOn: HLA-C*15:02
# procedureText: IEDB peptide-MHC binding, purified MHC/direct/fluorescence; filed as Kd, often an IC50 or EC50 that approximates it; bounds were set here for any values at or beyond the usual limits of such assays
# testContext: source organism: Bacillus anthracis str. A2012
resultType: Kd

q: Which measured Kd value corresponds to `WMYYPRSPV` ?
a: ≥ 20 µM

###

# testedOn: HLA-A*31:01
# procedureText: IEDB peptide-MHC binding, purified MHC/competitive/fluorescence; filed as Kd, often an IC50 or EC50 that approximates it; bounds were set here for any values at or beyond the usual limits of such assays
# testContext: source organism: Cupriavidus metallidurans CH34
resultType: Kd (µM)
Numbers only, in µM.

q: Which measured Kd value corresponds to `TGHPWITFK` ?
a: 0.0482

###

# testedOn: HLA-A*26:01
# procedureText: IEDB peptide-MHC binding, purified MHC/competitive/fluorescence; filed as Kd, often an IC50 or EC50 that approximates it; bounds were set here for any values at or beyond the usual limits of such assays
# testContext: source organism: Orthohantavirus andesense
resultType: Kd

q: Find the measured Kd: item `QIQAGNFHW` , target or system HLA-A*26:01.
a: ≥ 20 µM

###

# testedOn: HLA-B*27:05
# procedureText: IEDB peptide-MHC binding, purified MHC/competitive/fluorescence; bounds were set here for any values at or beyond the usual limits of such assays
# testContext: source organism: hepatitis C virus genotype 1a
resultType: IC50 (nM)
One number for each entry, in nM.

q: Which measured IC50 value corresponds to `GRAVICGKY` ?
a: 32

###

# testedOn: HLA-A*29:02
# procedureText: IEDB peptide-MHC binding, purified MHC/competitive/fluorescence; filed as Kd, often an IC50 or EC50 that approximates it; bounds were set here for any values at or beyond the usual limits of such assays
# testContext: source organism: Brucella suis 1330
pKd: −log10 of the molar value.
resultType: pKd

q: Which measured pKd value corresponds to `TEWPQLKVA` ?
a: ≤ 4.70

###

# testedOn: HLA-B*40:01
# procedureText: IEDB peptide-MHC binding, purified MHC/competitive/radioactivity; filed as Kd, often an IC50 or EC50 that approximates it; bounds were set here for any values at or beyond the usual limits of such assays
# testContext: source organism: Mammarenavirus brazilense
resultType: Kd (nM)
Numbers only, in nM.

q: Which measured Kd value corresponds to `AENGELTEI` ?
a: 2030

###

# testedOn: HLA-B*08:01
# procedureText: IEDB peptide-MHC binding, purified MHC/direct/fluorescence; filed as Kd, often an IC50 or EC50 that approximates it; bounds were set here for any values at or beyond the usual limits of such assays
# testContext: source organism: Orthohantavirus sinnombreense
resultType: Kd

q: Which measured Kd value corresponds to `FRYKSRCYV` ?
a: ≥ 20 µM
